biological target: T1, human VEGFA165 (human, UniProt P15692-4 27-191); test: SPR Biacore 8K, VEGFA165 on CM5, nanobody analyte, 1:1 fit
T1 construct: Bought protein from two suppliers, treated as one molecule; the supplier is named under assay; also called antigen VEGFA
T1 sequence (P15692 other isoform, or with tags, fused parts or gaps limits assumed): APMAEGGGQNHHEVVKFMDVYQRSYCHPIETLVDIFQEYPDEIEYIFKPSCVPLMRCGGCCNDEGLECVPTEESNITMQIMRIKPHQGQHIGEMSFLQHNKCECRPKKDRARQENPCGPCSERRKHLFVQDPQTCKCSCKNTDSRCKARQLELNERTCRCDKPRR
readout: koff (s⁻¹)

Example binders with recorded koff:
2V1-9GS (VHH, Tandem bivalent nanobody) QLQLVESGGGSVQPGGSLRLSCEVSGRTFSSYTMGWFRQAPGKEREFVVAISKGGYKYDSVSLEARFTISKDNTKNTVYLQMNSLKPEDTAVYYCAATRAYGSSRLRLADTYEYWGQGTQVTVSSGGGGSGGGSQLQLVESGGGSVQPGGSLRLSCEVSGRTFSSYTMGWFRQAPGKEREFVVAISKGGYKYDSVSLEARFTISKDNTKNTVYLQMNSLKPEDTAVYYCAATRAYGSSRLRLADTYEYWGQGTQVTVSS :: 5.05e-05
2V30-9GS (VHH, Tandem bivalent nanobody) QLQLVESGGGSVQPGGSLRLSCEVSGRTFSSYTMGWFRQAPGKGREFVVAISKGGYKYDAVSLEARFTISKDNTKNTVYLQMNSLKPEDTAVYYCAATRAYGSSRLRLAKTYEYWGQGTQVTVSSGGGGSGGGSQLQLVESGGGSVQPGGSLRLSCEVSGRTFSSYTMGWFRQAPGKGREFVVAISKGGYKYDAVSLEARFTISKDNTKNTVYLQMNSLKPEDTAVYYCAATRAYGSSRLRLAKTYEYWGQGTQVTVSS :: 9.29e-05
V43 (VHH, Monovalent nanobody; tag not described here, the ELISA detects a His tag) VHH: QLQLVESGGGSVQPGGSLRLSCEVSGRTFTSYTMGWFRQAPGKEREFVVAISKGGYKYDSVSLEARFTISKDNTKNTVYLQMNSLKPEDTAVYYCAGTRAYGSSRLRLANTYEYWGQGTQVTVSS :: 8.63e-05

(1) V29 (VHH, Monovalent nanobody; tag not described here) VHH: QLQLVESGGGSVQPGGSLRLSCEVSGRTFSSYTMGWFRQAPGKEREFVVAISKGGYKYDSVSLEARFTISKDNTKNTVYLQMNSLKPEDTAVYYCAGTRAYGSSRLRLANTYEYWGQGTQVTVSS
(2) V33 (VHH, Monovalent nanobody; tag not described here) VHH: QLQLVESGGGSVQPGGSLRLSCEVSGRTFSSYTMGWFRQAPGKEREFVVAISKGGYKYDSVSLEARFTISKDNTKNTVYLQMNSLKPEDTAVYYCAATRAYGSSRLRLAKTYEYWGQGTQVTVSS
Query block: Could you point out whether the larger koff belongs to 1 or to 2 ? Let me know the label of the one you choose.
Result block: 2
